molecular target: GST-Bcl-2 (Homo sapiens); test: TR-FRET binding assay, GST-Bcl-2 with F-Bak peptide probe; details: ratio of TR-FRET Ki values, Bcl-XL over Bcl-2
Sequence (P10415 whole entry): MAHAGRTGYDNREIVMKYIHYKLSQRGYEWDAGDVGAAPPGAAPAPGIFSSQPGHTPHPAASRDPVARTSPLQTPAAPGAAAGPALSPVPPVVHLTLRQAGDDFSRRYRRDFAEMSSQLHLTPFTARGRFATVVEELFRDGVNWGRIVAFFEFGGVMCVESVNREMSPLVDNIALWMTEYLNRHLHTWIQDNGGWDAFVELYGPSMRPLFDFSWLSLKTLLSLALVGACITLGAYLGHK
For each record, check the reported Binding selectivity ratio (Bcl-XL Ki/Bcl-2 Ki): if it is below 700 write 1 (yes), else write 0 (no).

Request: Strictly below 700: is that where Binding selectivity ratio (Bcl-XL Ki/Bcl-2 Ki) of CN1CCC(Nc2ccc(S(=O)(=O)NC(=O)c3ccc(N4CCN(CC5=C(c6ccc(Cl)cc6)CC(C)(C)CC5)CC4)cc3Oc3cccc4[nH]cnc34)cc2[N+](=O)[O-])CC1 [Example 418] sits?
Result: 1 (yes)

Request: What do we get for CN1CCC(Nc2ccc(S(=O)(=O)NC(=O)c3ccc(N4CCN(CC5=C(c6ccc(Cl)cc6)CC(C)(C)CC5)CC4)cc3Oc3cccc4c3CCN4)cc2[N+](=O)[O-])CC1 [Example 395] ?
Result: 1 (yes)

Request: What do we get for CC1(C)CCC(CN2CCN(c3ccc(C(=O)NS(=O)(=O)c4ccc(NC5CCN(C6CCOCC6)CC5)c([N+](=O)[O-])c4)c(Oc4cccc5[nH]cnc45)c3)CC2)=C(c2ccc(Cl)cc2)C1 [Example 417] ?
Result: 1 (yes)

Request: What do we get for CC1(C)CCC(CN2CCN(c3ccc(C(=O)NS(=O)(=O)c4ccc(N[C@@H]5CCN(CC(F)F)C5)c([N+](=O)[O-])c4)c(Oc4cccc5[nH]cnc45)c3)CC2)=C(c2ccc(Cl)cc2)C1 [Example 407] ?
Result: 0 (no)

Request: What do we get for CC1(C)CCC(CN2CCN(c3ccc(C(=O)NS(=O)(=O)c4cnc(OCC5(F)CCOCC5)c(C#N)c4)c(Oc4cccc5[nH]ccc45)c3)CC2)=C(c2ccc(Cl)cc2)C1 [Example 393] ?
Result: 0 (no)

Request: What do we get for CC1(C)CCC(CN2CCN(c3ccc(C(=O)NS(=O)(=O)c4ccc(NCC5CN(C6CC6)CCO5)c([N+](=O)[O-])c4)c(Oc4cccc5[nH]ncc45)c3)CC2)=C(c2ccc(Cl)cc2)C1 (stereo not shown) [Example 411] ?
Result: 0 (no)

Request: What do we get for CC1(C)CCC(CN2CCN(c3ccc(C(=O)NS(=O)(=O)c4cnc(OC[C@H]5CC[C@H](O)CC5)c(Cl)c4)c(Oc4cccc5[nH]ncc45)c3)CC2)=C(c2ccc(Cl)cc2)C1 [Example 421] ?
Result: 0 (no)

Request: What do we get for CC1(C)CCC(CN2CCN(c3ccc(C(=O)NS(=O)(=O)c4ccc(NCC5CN(C6CC6)CCO5)c([N+](=O)[O-])c4)c(Oc4cccc5[nH]cnc45)c3)CC2)=C(c2ccc(Cl)cc2)C1 (stereo not shown) [Example 432] ?
Result: 1 (yes)

Request: What do we get for CC1(C)CCC(CN2CCN(c3ccc(C(=O)NS(=O)(=O)c4ccc(NCC5CCC(F)(F)CC5)c([N+](=O)[O-])c4)c(Oc4cccc5[nH]ncc45)c3)CC2)=C(c2ccc(Cl)cc2)C1 [Example 412] ?
Result: 0 (no)

Request: What do we get for CC1(C)CCC(CN2CCN(c3ccc(C(=O)NS(=O)(=O)c4ccc(NCC5CN(CC#N)CCO5)c([N+](=O)[O-])c4)c(Oc4cccc5[nH]cnc45)c3)CC2)=C(c2ccc(Cl)cc2)C1 (stereo not shown) [Example 431] ?
Result: 1 (yes)
